Would you kindly list % Inhibition of colchicine binding ± SD for each of these compounds?
- System: tubulin
- Procedure Text: Colchicine binding assay (inhibition of [3H]colchicine binding to tubulin)
- Applied Conditions: inhibitor at 5 μM; 1.0 μM tubulin, 5.0 μM [3H]colchicine

Task: Tell me the measured % Inhibition of colchicine binding ± SD of COc1ccc2c(c1)CCCCC=C2c1cc(OC)c(OC)c(OC)c1 [Compound 21] , please.
Output: 29 ± 5 (5 μM) %

Task: # query: % Inhibition of colchicine binding ± SD of entry COc1ccc2c(c1O)CC=C2c1cc(OC)c(OC)c(OC)c1 [Compound 31]
Output: 17 ± 5 (5 μM) %

Task: Entry COc1cc(C2=CCCCCc3c2ccc(OC)c3OC)cc(OC)c1OC [Compound 20] has what % Inhibition of colchicine binding ± SD?
Output: 31 ± 0.6 (5 μM) %

Task: Param item = COc1ccc2c(c1O)CCCCC=C2c1cc(OC)c(OC)c(OC)c1 [Compound 23] ; retrieve measured % Inhibition of colchicine binding ± SD.
Output: 78%
